// provenance: ChEMBL document CHEMBL1144289

- tested on: UniProt P30968
- Sequence (P30968 whole entry): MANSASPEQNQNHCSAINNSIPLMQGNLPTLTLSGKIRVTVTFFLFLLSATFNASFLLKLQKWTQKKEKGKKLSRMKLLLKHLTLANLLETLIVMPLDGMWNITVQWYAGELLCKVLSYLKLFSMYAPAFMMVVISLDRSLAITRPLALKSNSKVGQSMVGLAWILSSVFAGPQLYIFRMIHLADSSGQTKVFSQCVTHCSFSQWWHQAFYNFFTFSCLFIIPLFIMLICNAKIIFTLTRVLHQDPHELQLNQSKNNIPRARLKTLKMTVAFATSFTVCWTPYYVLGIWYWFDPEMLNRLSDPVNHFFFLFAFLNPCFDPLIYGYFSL
result type: Ki (µM)
Write the number in µM without appending the unit.

compound	measurement units	Ki
N[C@@H](Cn1c(=O)n(Cc2c(F)cccc2F)c(=O)n(-c2ccccc2F)c1=O)c1ccccc1	µM	0.089
NC(Cc1c[nH]c2ccccc12)Cn1c(=O)n(Cc2c(F)cccc2F)c(=O)n(-c2c(F)cccc2F)c1=O (centres undefined)	µM	0.38
N[C@@H](Cn1c(=O)n(Cc2c(F)cccc2F)c(=O)n(-c2ccc3nsnc3c2)c1=O)c1ccccc1	µM	0.41

Next compound, please.
// query Specify the recorded Ki for "N[C@@H](Cn1c(=O)n(Cc2c(F)cccc2F)c(=O)n(-c2c(F)cccc2F)c1=O)c1ccccc1" , system: UniProt P30968.
// result 0.22
